Tested on: TRPC4 beta (transient receptor potential cation channel C4), mouse
Procedure text: potentiation of DAMGO EC20 TRPC4 response – cell-based, Fluo-4, HEK293 TRPC4beta/mu-opioid, confirmation (AID 2555)
Applied conditions: DAMGO EC20, Fluo-4 calcium flux, at 10 µM
Calls of active or inactive are those of the source.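 Rule for the calls: active = primary screen hit whose calcium fluorescence ratio, in both repeats, exceeds the weak agonist control mean by 3 SD; inactive = the rest.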
Outcome codes: TRUE (active), FALSE (inactive)

1. O=C(NC1CCCC1)c1cc2ccccc2o1 : TRUE
2. Cc1cc(N2CCCCC2)nc(NCc2ccccc2)n1 : FALSE
3. Cc1nc(Cl)nc(N(C)c2ccccc2)c1[N+](=O)[O-] : FALSE
4. CSc1ccc(C(=O)NCC(c2ccco2)N(C)C)cc1[N+](=O)[O-] (stereo unspecified) : FALSE
5. O=C(Cn1c(NCCCO)nc2ccccc21)c1ccc(Br)cc1 : FALSE
6. CN(CCc1ccccn1)C(=O)CC1C(=O)NCCN1Cc1cccc(F)c1 (stereo unspecified) : FALSE

====

Test system: TRPC4 (mouse), co-expressed with 5HT1a in HEK293
Procedure text: enhancement of serotonin-evoked TRPC4 response – cell-based, second counter screen, HEK293 TRPC4/5HT1a, Fluo-4, counter-screen for TRPC4 potentiator project, confirmation (AID 434979)
Applied conditions: Fluo-4 calcium flux, at 10 µM, serotonin added at its EC20 dose
Calls of active or inactive are those of the source.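 Rule for the calls: active = signal rise over 3 SD above mean of control wells given weak agonist, in both repeats and first screen; inactive = the rest.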
Outcome codes: T = active, F = inactive

1. CCOc1cc2[nH]c(=S)n(C3CC3)c(=O)c2cc1OCC : F
2. COCCn1nnnc1C(c1cc2ccc(OC)cc2[nH]c1=O)N1CCN(C2CCCCC2)CC1 (configuration not stated) : F
3. O=C1COc2ccc(N3C(=O)C=CC3=O)cc2N1 : F
4. C=CCNC(=S)N1CCN(CCN=Cc2c(C)[nH]n(-c3ccc([N+](=O)[O-])cc3)c2=O)CC1 : F
5. CCN1CCN(CCC(=O)Nc2ccccc2OC)CC1 : T
6. Cc1ccc(C)c2[nH]c(=O)c(CN(CC3CCCO3)C(=S)NCc3ccco3)cc12 (configuration not stated) : F
7. CN1CCCC(OC(=O)c2cc(Br)ccc2Cl)C1 (configuration not stated) : F
8. C/C(N)=C(/C#N)C(=O)COC(=O)CC12CC3CC(CC(C3)C1)C2 : F
9. COc1ccc(CN2CCN(C(=O)c3ccc(F)cc3)CC2)c(OC)c1 : F
10. CN(C)CCCNc1ncnc2c1cnn2Cc1ccccc1Cl : T
11. CCC(=O)NC(C)C(c1cccs1)N1CCN(c2ccccc2)CC1 (configuration not stated) : F
12. Cc1ccc(C[n+]2cccc(-c3ccccc3)c2)c(C)c1 : F
13. CC1CCN(CC(O)COCCC23CC4CC(CC(C4)C2)C3)CC1 (configuration not stated) : F
14. COc1ccc2nc(SCCN(C)C)[nH]c2c1 : F
15. COc1ccccc1N1CCN(c2ncc(C(=O)N3CCN(c4cccc(Cl)c4)CC3)c3ccccc23)CC1 : T
16. Cc1ccc(C)c(NC(=S)NCC(c2ccccc2)N(C)C)c1 (configuration not stated) : F
17. CCCCn1c(SCC(=O)N2c3ccccc3Sc3ccccc32)nc2c1c(=O)n(C)c(=O)n2C : T
18. Cc1cc(C(=O)N/N=C\c2cc(C(C)(C)C)ccc2O)n[nH]1 : F
19. c1ccc(-c2cnc(SCCN3CCOCC3)n2CC2CCCO2)cc1 (configuration not stated) : F
20. CCOC(=O)CC(NC(=O)c1cc2cc(Br)ccc2oc1=O)c1cccc([N+](=O)[O-])c1 (configuration not stated) : T
21. COC(=O)[C@@]12CCCCN1[C@H](c1ccc(-c3ccccc3)cc1)[C@@H]1C(=O)N(C)C(=O)[C@@H]12 : T
22. CCCn1c(=O)c(C(=O)NCC2CCCO2)c(O)c2ccccc21 (configuration not stated) : T

====

Measurement target: Short transient receptor potential channel 4 (Mus musculus) (UniProt Q9QUQ5)
Sequence (Q9QUQ5 whole entry, looked up): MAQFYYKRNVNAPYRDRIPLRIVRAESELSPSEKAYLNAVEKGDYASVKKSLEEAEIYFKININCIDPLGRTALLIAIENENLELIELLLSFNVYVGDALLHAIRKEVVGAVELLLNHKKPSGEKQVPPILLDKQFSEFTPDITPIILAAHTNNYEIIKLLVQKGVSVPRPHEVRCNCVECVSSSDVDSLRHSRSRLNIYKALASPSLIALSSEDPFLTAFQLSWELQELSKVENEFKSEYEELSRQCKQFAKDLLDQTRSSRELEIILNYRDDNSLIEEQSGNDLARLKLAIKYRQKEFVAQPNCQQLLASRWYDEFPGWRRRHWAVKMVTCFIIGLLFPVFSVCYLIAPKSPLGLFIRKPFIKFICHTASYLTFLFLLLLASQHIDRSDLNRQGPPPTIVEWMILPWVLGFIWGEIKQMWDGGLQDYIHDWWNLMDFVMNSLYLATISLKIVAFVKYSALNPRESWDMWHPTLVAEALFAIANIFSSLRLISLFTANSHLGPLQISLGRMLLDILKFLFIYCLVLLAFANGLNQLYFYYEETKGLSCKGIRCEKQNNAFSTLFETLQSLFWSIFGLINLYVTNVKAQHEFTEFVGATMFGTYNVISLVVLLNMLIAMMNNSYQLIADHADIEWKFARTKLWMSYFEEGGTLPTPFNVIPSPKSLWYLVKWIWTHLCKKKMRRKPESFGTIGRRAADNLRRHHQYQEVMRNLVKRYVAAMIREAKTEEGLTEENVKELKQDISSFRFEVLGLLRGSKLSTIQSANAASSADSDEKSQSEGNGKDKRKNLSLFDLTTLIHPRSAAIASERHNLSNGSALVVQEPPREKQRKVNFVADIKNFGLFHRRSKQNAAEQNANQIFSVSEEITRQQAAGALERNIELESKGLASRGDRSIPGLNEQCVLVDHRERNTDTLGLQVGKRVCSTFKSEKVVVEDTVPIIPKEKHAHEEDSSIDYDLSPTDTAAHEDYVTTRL
Procedure text: blockers of DAMGO-evoked TRPC4 calcium flux – cell-based, Fluo4, HEK293 TRPC4beta/mu-opioid, confirmation (AID 2636)
Applied conditions: at 10 µM
Calls of active or inactive are those of the source.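 How the source made its calls: active means calcium signal cut by more than 3 SD below the full-agonist control yet still positive, in both repeats and the earlier primary screen; inactive means the rest.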
Outcome codes: active, inactive

1) O=Cc1c(N2CCCCC2)nc2ccccn2c1=O : inactive
2) CCCn1nc([N+](=O)[O-])c(C(C#N)c2nc3ccccc3o2)c(Cl)c1=O (stereo unspecified) : active
3) CCN1C(=O)/C(=C\N2CCCc3ccccc32)SC1=S : inactive
4) CSc1ccc(C(=O)NCC(c2ccco2)N(C)C)cc1[N+](=O)[O-] (stereo unspecified) : inactive
5) COc1cccc(CN2CCNC(=O)C2CC(=O)N(C)CCc2ccccn2)c1OC (stereo unspecified) : inactive
6) O=C1S/C(=C\c2ccc(N3CCOCC3)o2)C(=O)N1Cc1c(F)cccc1Cl : inactive

====

Measurement target: Potassium channel subfamily K member 9 (Homo sapiens) (UniProt Q9NPC2)
Procedure text: human KCNK9 potassium channel blockers – cell-based, selectivity assay for Kir2.1 inhibitor project (AID 2329)
Applied conditions: KCNK9-expressing cells, ion flux inhibition, at 10 µM
The list shows a part of the results. Active and inactive are the calls of the source. How the calls were made is not given here.
Outcome codes: active, inactive

1. CN1CCN(CCCCOc2ccccc2-c2ccccc2)CC1 : inactive
2. CC1(C)NC(=O)N(CCCCSc2ccc(Cl)cc2)C1=O : inactive
3. CC(NCc1ccccc1OC1CCCC1)c1ccccc1 (stereo unspecified) : inactive
4. S=C(Nc1ccc(Br)cc1)NC1CCN(Cc2ccccc2)CC1 : inactive
5. Cc1cc(C)nc(SCc2nnc(SCC(=O)OC3CCCCC3)o2)n1 : inactive
6. C=CCc1cc(S(=O)(=O)c2ccc(O)c(CC=C)c2)ccc1O : active

====

Measurement target: Short transient receptor potential channel 4 (Mus musculus)
Procedure text: blockers of DAMGO-evoked TRPC4 calcium flux – cell-based, Fluo4, HEK293 TRPC4beta/mu-opioid, confirmation (AID 2636)
Applied conditions: at 10 µM
The source made the active and inactive calls.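 How the source made its calls: active means calcium signal cut by more than 3 SD below the full-agonist control yet still positive, in both repeats and the earlier primary screen; inactive means the rest.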
Outcome codes: active, inactive

1. COc1ccc(C(CNC(=O)C2CCN(S(=O)(=O)c3ccc(F)cc3)CC2)N(C)C)cc1 (stereo not given) : inactive
2. Cc1oc(-c2ccc(Cl)cc2)nc1CN1CCC(C(=O)N2CCc3ccccc3C2)CC1 : inactive
3. O=[N+]([O-])c1cc([N+](=O)[O-])c2oc(-c3ccccc3)c(Br)c2c1O : inactive
4. Cc1cc(C)cc(NC(=O)c2nnn(Cc3cc(C)ccc3C)c2N)c1 : inactive
5. CN1CCN(c2ccc(NC(=O)c3ccc(-c4cccc([N+](=O)[O-])c4)o3)cc2)CC1 : inactive
6. CN(C)CCN1C(=O)C2C(C(=O)Nc3cc(Cl)cc(Cl)c3)C3C=CC2(O3)C1C(=O)NC1CCCCC1 (stereo not given) : active
7. CCOc1ccc2c(C)nc(NC3=NC(C)(C)C=C(C)N3)nc2c1 : active
8. O=c1c2ccccc2nc(SCc2ccccc2)n1CC1CCCO1 (stereo not given) : active
9. COc1ccc(C(=O)Nc2nc(-c3cccs3)cs2)cc1 : active
10. CC(C)n1cnc2c(N(C)c3ccccc3)nc(N(CCN(C)C)Cc3ccccc3)nc21 : inactive

====

Tested on: TRPC4 (mouse), co-expressed with 5HT1a in HEK293
Procedure text: enhancement of serotonin-evoked TRPC4 response – cell-based, second counter screen, HEK293 TRPC4/5HT1a, Fluo-4, counter-screen for TRPC4 potentiator project, confirmation (AID 434979)
Applied conditions: Fluo-4 calcium flux, at 10 µM, serotonin added at its EC20 dose
Activity calls are given as the source filed them.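 The calls were made as follows: active = signal rise over 3 SD above mean of control wells given weak agonist, in both repeats and first screen; inactive = the rest.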
Outcome codes: TRUE (active), FALSE (inactive)

1) Cc1ccc(C(CNS(=O)(=O)c2ccc([N+](=O)[O-])cc2)N2CCN(C)CC2)cc1 (stereo not given) : FALSE
2) Cc1ccc(C(=O)C[n+]2cccc3cc(C)ccc32)cc1 : FALSE
3) N=c1c(C(=O)NCC2CCCO2)cc2c(=O)n3ccccc3nc2n1Cc1ccccc1Cl (stereo not given) : TRUE
4) COc1ccc(NC(=O)c2c[nH]n3c(=O)cc(C4CCN(C(=O)OC(C)(C)C)CC4)nc23)cc1Cl : FALSE
5) Cc1ccc(C)c2nc3sc(C(=O)O)cc3cc12 : FALSE

====

System: TRPC4 beta (transient receptor potential cation channel C4), mouse
Procedure text: TRPC4 cation channel opening, retest – cell-based, Fluo4 calcium, HEK293 TRPC4beta/mu-opioid, duplicates, 10 µM, confirmation (AID 2426)
Applied conditions: Fluo4 calcium fluorescence, at 10 µM; stronger effect = higher value
Calls of active or inactive are those of the source.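 How the source made its calls: active means fluorescence ratio normalized to control raised more than 50% in primary screen plus both repeat runs; inactive means the rest.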
Reported property: activation

1) Cc1c(N2C(=O)/C(=C/c3ccccc3)SC2=S)c(=O)n(-c2ccccc2)n1C : inactive
2) N=c1c(C(=O)NCC2CCCO2)cc2c(=O)n3ccccc3nc2n1Cc1ccc(Cl)cc1 (stereo not given) : inactive
3) CCOC(=O)CSc1nc2c(sc(=S)n2Cc2ccco2)c(=O)n1-c1ccccc1 : inactive
4) Cc1sc2ncnc(SCC(=O)N(C)C3CCS(=O)(=O)C3)c2c1C (stereo not given) : inactive
5) Cc1ccc(-n2c(C)cc(C)c(C#N)c2=O)cc1Cl : inactive
6) CC(=O)Nc1cccc(C(=O)NCC2(N3CCCCC3)CCCCC2)c1 : inactive
7) O=C(C1CCCN(Cc2cccc(Cl)c2)C1)N1CCCCC1 (stereo not given) : inactive
8) CCCCn1c(SCC(=O)N2c3ccccc3Sc3ccccc32)nc2c1c(=O)n(C)c(=O)n2C : inactive
9) Cc1cc(N2CCCCCC2)nc2ccccc12 : inactive
10) Cc1ccc(NS(=O)(=O)c2cc(C(=O)N3CCc4ccccc4C3)ccc2Cl)cc1 : inactive
